Reference for the values: patent US20050164951A1

Target: mouse sEH (Mus musculus, UniProt P34914)
Construct: made in house; host or cells: baculovirus expression system
Sequence (P34914 whole entry): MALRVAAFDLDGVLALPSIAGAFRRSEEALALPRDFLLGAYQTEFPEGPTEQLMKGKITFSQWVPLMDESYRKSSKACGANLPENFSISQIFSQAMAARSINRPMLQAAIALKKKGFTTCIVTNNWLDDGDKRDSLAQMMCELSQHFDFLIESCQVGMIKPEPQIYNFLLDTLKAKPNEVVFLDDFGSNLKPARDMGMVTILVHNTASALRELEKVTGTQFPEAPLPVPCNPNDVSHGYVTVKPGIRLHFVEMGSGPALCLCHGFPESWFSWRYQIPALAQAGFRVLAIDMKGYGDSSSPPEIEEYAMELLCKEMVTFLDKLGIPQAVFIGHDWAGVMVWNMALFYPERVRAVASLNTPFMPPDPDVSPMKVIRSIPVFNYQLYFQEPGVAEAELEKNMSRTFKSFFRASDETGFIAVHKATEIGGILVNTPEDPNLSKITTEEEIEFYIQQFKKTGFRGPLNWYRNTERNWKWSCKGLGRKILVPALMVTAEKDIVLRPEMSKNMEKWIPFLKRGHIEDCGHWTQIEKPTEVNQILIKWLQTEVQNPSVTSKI
Assay: Inhibition of recombinant mouse sEH, IC50 assay with 4-nitrophenyl-trans-2,3-epoxy-3-phenylpropyl carbonate as substrate
Assay type: biochemical
Details: Tables 17a and b; read-out: IC50 (μM) Mouse sEH
Catalogue of compounds with associated IC50
State just the number; it will be interpreted in µM.

Some compounds with known IC50 results, for comparison:
Query string: # lookup: IC50 of O=C(NCCCCCOCCCCCOCC(F)(F)F)NC12CC3CC(CC(C3)C1)C2
Result string: 0.05

Query string: # lookup: IC50 of CCCCC(CO)NC(=O)Nc1cccc(Cl)c1 (stereo not drawn)
Result string: 8.4

Query string: # lookup: IC50 of CC(C)=CCCC(C)CCOCCCCCNC(=O)NC12CC3CC(CC(C3)C1)C2 (stereo not drawn)
Result string: 0.05

Query string: # lookup: IC50 of CS(=O)(=O)NCCCCCCCCCCCCNC(=O)NC12CC3CC(CC(C3)C1)C2
Result string: 0.07

Query string: # lookup: IC50 of CCCCC(C)OCCCCCNC(=O)NC12CC3CC(CC(C3)C1)C2 (stereo not drawn)
Result string: 0.05

Others:
Query string: # lookup: IC50 of CC(O)c1cccc2c(S(=O)(=O)NCCOCCOCCCCCNC(=O)NC34CC5CC(CC(C5)C3)C4)cccc12 (stereo not drawn)
Result string: 0.05

Query string: # lookup: IC50 of COc1ccc(CC(=O)NC2CCCCC2)cc1
Result string: 1.4

Query string: # lookup: IC50 of COc1ccc(NC(=O)CC2CCCCC2)cc1
Result string: 0.15

Query string: # lookup: IC50 of CCCCCCCCC(NC(=O)CCCCCCCCCCCNC(=O)NC12CC3CC(CC(C3)C1)C2)C(=O)OC1C(CO)CC(O)C(O)C1O (stereo not drawn)
Result string: 0.08

* * *

Target: mouse sEH (Mus musculus, UniProt P34914)
Construct: made in house; host or cells: baculovirus expression system
Experiment: Inhibition of recombinant mouse sEH, IC50 assay with 4-nitrophenyl-trans-2,3-epoxy-3-phenylpropyl carbonate as substrate
Format: biochemical
Details: Table 8; established protocols; read-out: IC50 (μM) Mouse sEH
measured_attribute: IC50
Provide a numeric answer, followed by its unit.

Query string: Lab note: need IC50 with mouse sEH (Mus musculus, UniProt P34914) for entry CCCCCOC(=O)CCCCC(=O)NC12CC3CC(CC(C3)C1)C2 [Compound 834] , please look it up.
Result string: 0.34 µM

Others:
Query string: Lab note: need IC50 with mouse sEH (Mus musculus, UniProt P34914) for entry CCOCCOCCOCCCCCCC(=O)NC12CC3CC(CC(C3)C1)C2 [Compound 1007] , please look it up.
Result string: 0.05 µM

Query string: Lab note: need IC50 with mouse sEH (Mus musculus, UniProt P34914) for entry O=C(CCCCCCOCCOCCOCc1ccccc1)NC12CC3CC(CC(C3)C1)C2 [Compound 959] , please look it up.
Result string: 0.05 µM

Query string: Lab note: need IC50 with mouse sEH (Mus musculus, UniProt P34914) for entry CCCCCOC(=O)CCCNC(=O)CC12CC3CC(CC(C3)C1)C2 [Compound 1017] , please look it up.
Result string: 0.05 µM

Query string: Lab note: need IC50 with mouse sEH (Mus musculus, UniProt P34914) for entry CCCCCCCCCCCC(=O)NC12CC3CC(CC(C3)C1)C2 [Compound 989] , please look it up.
Result string: 0.05 µM

Query string: Lab note: need IC50 with mouse sEH (Mus musculus, UniProt P34914) for entry CCCCCCCCCCNC(=O)CC12CC3CC(CC(C3)C1)C2 [Compound 1018] , please look it up.
Result string: 0.05 µM

* * *

Target: mouse sEH (Mus musculus)
Construct: made in house; host or cells: baculovirus expression system
Assay: Inhibition of recombinant mouse sEH, IC50 assay with 4-nitrophenyl-trans-2,3-epoxy-3-phenylpropyl carbonate as substrate
Assay type: biochemical
Description: Assays were performed in triplicate. […] The curve was generated from at least three separate runs, each in triplicate, to obtain the standard deviation (SD) given in Table 1 thru Table 4.
measured_attribute: pIC50
# reply with the number alone; pIC50 is -log10 of concentration in mol/L

Query string: # lookup: pIC50 of O=C(CCCCCCCCCCCNC(=O)NC12CC3CC(CC(C3)C1)C2)NS(=O)(=O)c1ccccc1 [Compound 914]
Result string: 7.30

* * *

Biological target: human sEH (Homo sapiens, UniProt P34913)
Construct: made in house; host or cells: baculovirus expression system
Sequence (P34913 1-555): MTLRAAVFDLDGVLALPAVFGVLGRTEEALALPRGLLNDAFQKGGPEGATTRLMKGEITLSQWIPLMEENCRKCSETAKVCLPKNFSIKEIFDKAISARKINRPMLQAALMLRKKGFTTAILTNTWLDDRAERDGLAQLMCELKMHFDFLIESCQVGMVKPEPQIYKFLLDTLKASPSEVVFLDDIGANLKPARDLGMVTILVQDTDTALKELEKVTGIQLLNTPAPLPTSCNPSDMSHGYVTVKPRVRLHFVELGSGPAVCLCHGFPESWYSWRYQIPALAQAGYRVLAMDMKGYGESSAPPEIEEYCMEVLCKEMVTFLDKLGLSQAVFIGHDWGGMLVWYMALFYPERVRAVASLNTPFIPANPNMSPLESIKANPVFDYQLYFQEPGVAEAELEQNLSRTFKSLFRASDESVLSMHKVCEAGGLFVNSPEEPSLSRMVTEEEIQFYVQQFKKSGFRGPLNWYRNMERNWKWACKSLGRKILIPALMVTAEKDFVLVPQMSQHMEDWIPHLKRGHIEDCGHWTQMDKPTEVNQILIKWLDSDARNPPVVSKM
Assay: Inhibition of recombinant human sEH, IC50 assay with 4-nitrophenyl-trans-2,3-epoxy-3-phenylpropyl carbonate as substrate
Format: biochemical
Conditions: Table 1; […] enzyme, 5 min preincubation, pH 7.4, 30° C., [S] = 40 μM; means ± SD of three experiments; read-out: IC50 (μM) Human sEH
Catalogue of compounds with associated IC50
State just the number; it will be interpreted in µM.

Query string: Lab note: need IC50 with human sEH (Homo sapiens, UniProt P34913) for entry O=C(O)CCCCCNC(=O)NC1CCCCC1 [Compound 56] , please look it up.
Result string: 253

Query string: Lab note: need IC50 with human sEH (Homo sapiens, UniProt P34913) for entry COC(=O)CNC(=O)NC1CCCCC1 [Compound 549] , please look it up.
Result string: 70

Query string: Lab note: need IC50 with human sEH (Homo sapiens, UniProt P34913) for entry COC(=O)CCNC(=O)NC1CCCCC1 [Compound 635] , please look it up.
Result string: 78

Query string: Lab note: need IC50 with human sEH (Homo sapiens, UniProt P34913) for entry O=C(O)CCCCNC(=O)NC1CCCCC1 [Compound 884] , please look it up.
Result string: 2.4

Query string: Lab note: need IC50 with human sEH (Homo sapiens, UniProt P34913) for entry O=C(O)CCNC(=O)NC1CCCCC1 [Compound 109] , please look it up.
Result string: 358

Proceeding to the next compound to report its IC50.
Query string: Lab note: need IC50 with human sEH (Homo sapiens, UniProt P34913) for entry COC(=O)CCCCNC(=O)NC1CCCCC1 [Compound 854] , please look it up.
Result string: 5

* * *

Target: human sEH (Homo sapiens, UniProt P34913)
Construct: made in house; host or cells: baculovirus expression system
Sequence (P34913 1-555): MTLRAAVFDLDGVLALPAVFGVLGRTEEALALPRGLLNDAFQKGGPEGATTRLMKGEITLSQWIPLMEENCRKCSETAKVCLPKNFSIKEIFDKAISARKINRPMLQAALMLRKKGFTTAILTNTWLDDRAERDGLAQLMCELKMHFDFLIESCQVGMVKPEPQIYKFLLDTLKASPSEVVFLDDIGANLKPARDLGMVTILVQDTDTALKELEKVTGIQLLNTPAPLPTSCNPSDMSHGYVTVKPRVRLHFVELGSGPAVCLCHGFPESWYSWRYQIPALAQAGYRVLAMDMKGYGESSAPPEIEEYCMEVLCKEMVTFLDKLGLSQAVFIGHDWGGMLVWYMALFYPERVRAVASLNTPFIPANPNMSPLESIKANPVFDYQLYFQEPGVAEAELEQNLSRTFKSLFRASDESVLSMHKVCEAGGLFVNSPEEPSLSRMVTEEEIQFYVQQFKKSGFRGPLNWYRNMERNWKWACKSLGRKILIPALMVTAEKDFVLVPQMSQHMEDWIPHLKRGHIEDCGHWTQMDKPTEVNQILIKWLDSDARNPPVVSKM
Assay: Inhibition of recombinant human sEH, IC50 assay with 4-nitrophenyl-trans-2,3-epoxy-3-phenylpropyl carbonate as substrate
Format: biochemical
Settings: Tables 17a and b; read-out: IC50 (μM) Human sEH
measured_attribute: IC50 (µM)
State just the number; it will be interpreted in µM.

Query string: # lookup: IC50 of CC(O)c1cccc2c(S(=O)(=O)NCCOCCOCCCCCNC(=O)NC34CC5CC(CC(C5)C3)C4)cccc12 (centres unmarked)
Result string: 0.1

Query string: # lookup: IC50 of O=C(Cc1cccc(Cl)c1)NC1CCCCC1
Result string: 38
